system: TMPRSS2-ERG fusion; experiment: RT-PCR detection of induced endogenous TMPRSS2-ERG fusion transcript in LNCaP cells expressing input RNA; conditions: fusion gene partners TMPRSS2-ERG, LNCaP

# Molecule, Cell line(s) identified
data = [
    ("Antisense-C1: input RNA, SEQ ID NO: 18 (nucleic acid) antisense: TGTGCTCGCTTCGGCAGCACATATACTAACATTGGAACGATCCTGCAGTGAGCTCATGCTATTCCTATGACATAGATGAGCACTGGGTAGACCCCGTCCTGGTAACACTATTCATGCACTAACCCCAGGCGGGGGCCGTGGAGGGCAGGCGGACTAGGAGCCAGCTTTGGGGACC", "LNCaP"),
    ("Antisense-B1: input RNA, SEQ ID NO: 15 (nucleic acid) antisense: TGTGCTCGCTTCGGCAGCACATATACTAACATTGGAACGATCCTGCAGTGGCCTGAGCCTTGAAGAATGGGGTGTACTGGGTAAATCAAAATGGTGGGGAGCATTTCCAGATGGAGAAACTGCCTCACCTGCCGCGCTCCAGGCGGCGCTCCCCGCCCCTCGCCCTCCGCCTCCG", "LNCaP"),
]
